Protocol: Metabolic stability in cryopreserved human hepatocytes assessed as unbound intrinsic clearance measured per 10^6 cells at 1 uM measured after 120 mins by LC-MS/MS analysis
Format: ADME, cell-based, Hepatocyte
Setup conditions: 2 h
Experimental readout: CL free (µL/min)

Compound: COc1cc(F)c(O[C@H]2CC[C@@](C)(C(=O)O)CC2)cc1C(=O)N[C@@H]1[C@H]2CC[C@H](C2)[C@@H]1C(=O)Nc1cccc(S(=O)(=O)C(F)(F)F)c1
Measurement units: µL/min
Observed value: 306
--
Compound: COc1cc(F)c(Oc2ccc(C(=O)O)cc2)cc1C(=O)N[C@H]1[C@@H](C(=O)Nc2cccc(S(=O)(=O)C(F)(F)F)c2)[C@@H]2C=C[C@H]1C2 (racemic)
Measurement units: µL/min
Observed value: 480
